- System: SK-OV-3
- measurement.notes: NCI tumour cell line growth inhibition, 48 h
Activity calls are given as the source filed them. No stated cut-off is given here; in the data, active = GI50 up to about 1.1 µM and inactive = higher.
Examples of compounds with documented GI50 follow.

compound	result
O=[N+]([O-])c1ccc(Cl)cc1C1ON=C(c2ccccc2)N1C12CC3CC(CC(C3)C1)C2 (centres undefined)	> 100 µM (inactive)
COc1cc2cc3c4c(cc(OC)c(OC)c4c2cc1OC)CCN3C(=O)CCC(=O)NCCCN(C)C	46.2 µM (inactive)
Cc1ccc2c(c1)CN(C(=O)CCC(=O)OCc1ccccc1)c1ccc(C)cc1CN2C(=O)CCC(=O)OCc1ccccc1	> 100 µM (inactive)
COc1oc(C2C/C(=C/C(C)=C/C(C)=C/C(C)=C/c3ccc([N+](=O)[O-])cc3)CO2)c(C)c(=O)c1C (centres undefined)	12.9 µM (inactive)
Cc1nc2sc(C(=O)c3ccc(Cl)cc3)c(N)c2c(-c2ccccc2Cl)c1C(=O)Nc1ccccc1	14.4 µM (inactive)

What GI50 value was documented for this compound, O=C1CCCCC1C1(O)C(=O)Nc2cc(F)ccc21 (centres undefined) ?
> 100 µM (inactive)

What GI50 value was documented for this compound, CC(=O)OC1CC[C@]2(C)C3CC[C@@]4(C)C(CCC4[C@H](C)CCCC(C)C)[C@@H]3CCC2(Br)C1 (some centres undefined) ?
> 50 µM (inactive)

What GI50 value was documented for this compound, `COc1cc(NS(C)(=O)=O)ccc1NCc1c2ccccc2nc2ccccc12` ?
> 100 µM (inactive)

What GI50 value was documented for this compound, `O=c1c2ccccc2[nH]c2ccc3c(Cl)n[nH]c3c12` ?
> 100 µM (inactive)

---

- Test system: OVCAR-5
- measurement.notes: NCI tumour cell line growth inhibition, 48 h
Calls of active or inactive are those of the source. No stated cut-off is given here; in the data, active = GI50 up to about 1.1 µM and inactive = higher.
measurement.label: GI50

Some solved cases for reference:
molecule	result
Cn1c(S)nnc1CNc1ccc(-c2nnc(S)n2C)cc1	> 100 µM (inactive)
C=CCC(CNC(=O)OCc1ccccc1)OC(=O)OCc1ccccc1 (stereo unspecified)	> 100 µM (inactive)
N#CCN1CCCCCc2ccccc21	> 100 µM (inactive)
COC(=O)C(=O)C(C(=O)OC)C(=O)C(=O)Nc1ccccc1C(N)=O (stereo unspecified)	> 100 µM (inactive)

Hi! What's the reported GI50 for CNC(=O)OCC1=C(COC(=O)NC)C(C)N(c2ccc(OC)cc2)C1 (stereo unspecified) on OVCAR-5?
24.1 µM (inactive)

Hi! What's the reported GI50 for `Cc1cc(N(CCC#N)CCC#N)ccc1/C=C1N=C(/C=C\c2ccccc2)N(c2ccc(Cl)cc2)C\1=O` on OVCAR-5?
22.2 µM (inactive)

---

Examples of compounds with documented GI50 follow.
- Tested on: HT-29
- measurement.notes: NCI tumour cell line growth inhibition, 48 h
The source made the active and inactive calls. No stated cut-off is given here; in the data, active = GI50 up to about 1.1 µM and inactive = higher.

Some solved cases for reference:
compound	target.desc	result
C[C@]12CC[C@H]3[C@@H](CC=C4C[C@@H](N5CCCC5)CC[C@@]43C)[C@@H]1C/C(=C\c1ccc([N+](=O)[O-])cc1)[C@@H]2O	HT-29	13.2 µM (inactive)
Clc1cccc(Cl)c1C(Nc1nncs1)Nc1nncs1	HT-29	14.1 µM (inactive)
Cc1sc2nc(-c3ccc(Cl)c([N+](=O)[O-])c3)c(/C=N/NC(=N)N)n2c1C	HT-29	1.35 µM (inactive)
Nc1ccc(Oc2ccc(C34CC5CC6C3CC3CC4C(C5)C6(c4ccc(Oc5ccc(N)c(O)c5)cc4)C3)cc2)cc1O	HT-29	3.59 µM (inactive)
C1CCN(CCC2CCCCN2)CC1 (centres undefined)	HT-29	> 100 µM (inactive)
O=C1NC(N2CCOCC2)=N/C1=C\c1ccc(Cl)cc1	HT-29	> 100 µM (inactive)
C#CCNC(=O)NC(CCCNC(=O)OCc1ccccc1)C(=O)OCc1ccccc1 (centres undefined)	HT-29	> 100 µM (inactive)
CN(N=O)c1nc2c(C(N)=O)ncn2s1	HT-29	> 100 µM (inactive)

What GI50 value was documented for this compound, O=C1[C@H]2ON(c3ccccc3)C(c3ccccc3F)[C@H]2C(=O)N1c1ccc(Cc2ccc(N3C(=O)[C@@H]4ON(c5ccccc5)C(c5ccccc5F)[C@@H]4C3=O)cc2)cc1 (some centres undefined) ?
> 100 µM (inactive)

What GI50 value was documented for this compound, `Cc1ccc2c(c1)CN(C(=O)CCC(=O)OCc1ccccc1)c1ccc(C)cc1CN2C(=O)CCC(=O)OCc1ccccc1` ?
> 100 µM (inactive)

What GI50 value was documented for this compound, `O=C(C1=C(C(=O)c2ccccc2)SC2(S1)C(C(=O)c1ccccc1)=C(C(=O)c1ccccc1)Sc1c2ssc1=O)c1ccccc1` ?
> 100 µM (inactive)

What GI50 value was documented for this compound, `CCCCNC(=S)c1ccc(OC(=O)Nc2ccc(Cl)cc2)cc1` ?
8.18 µM (inactive)

What GI50 value was documented for this compound, CC1Cn2c(nc3ccccc32)NC1=O (centres undefined) ?
> 100 µM (inactive)

What GI50 value was documented for this compound, `Cn1c2ccccc2n2c3ncccc3c(=S)c(C#N)c12` ?
> 100 µM (inactive)

---

- Test system: TK-10
- measurement.notes: NCI tumour cell line growth inhibition, 48 h
Activity calls are given as the source filed them. Cut-off read from the data, not from the text of the source: active = GI50 up to about 1.1 µM and inactive = higher.
Examples of compounds with documented GI50 follow.

Some solved cases for reference:
compound	target.desc	GI50
COc1ccc(C(=O)/C=C/c2ccc(OCC(=N)N)cc2)cc1	TK-10	21.4 µM (inactive)
CC(C)(Oc1ccc2c(=O)cc(-c3ccccc3)oc2c1)C(=O)N1CCN(c2ccccc2)CC1	TK-10	8.17 µM (inactive)
Cc1cccc(C)c1NC(=O)CCCC(=O)C1CCC/C1=N\NC(=O)C(=O)NN (stereo not drawn)	TK-10	> 100 µM (inactive)
CCOc1cc2c(cnc3c4cc(OC)c(OC)cc4ccc23)cc1OC	TK-10	> 100 µM (inactive)
Oc1c(Cl)cc(CN(Cc2cc(Cl)c(O)c(Cl)c2)C2CCCCC2)cc1Cl	TK-10	> 100 µM (inactive)

What GI50 value was documented for this compound, `CCOP(=O)(OCC)C(C)(C)OC(=O)NC#N` ?
> 100 µM (inactive)

What GI50 value was documented for this compound, `N#CCCN(CCC#N)c1ccc(/C=C2\N=C(c3ccccc3)N(c3ccc(C(=O)O)cc3)C2=O)cc1` ?
> 100 µM (inactive)

What GI50 value was documented for this compound, `CCOC(=O)c1c(Cl)nc2ccccc2c1N=[N+]=[N-]` ?
31.9 µM (inactive)

What GI50 value was documented for this compound, `CC(C)(O)/C=C\P(=O)(O)O` ?
> 100 µM (inactive)

What GI50 value was documented for this compound, CC1(C)C(=O)C2(N)CCC1C2 (stereo not drawn) ?
> 100 µM (inactive)

What GI50 value was documented for this compound, NC1=NN(c2ccccc2)C(=O)C1C(=O)C(=O)Nc1cccc(C(F)(F)F)c1 (stereo not drawn) ?
> 100 µM (inactive)

What GI50 value was documented for this compound, O=[N+]([O-])CC(SCc1ccccc1)c1ccc2c(c1)OCO2 (stereo not drawn) ?
10.8 µM (inactive)

---

- System: SNB-19
- measurement.notes: NCI tumour cell line growth inhibition, 48 h
Activity calls are given as the source filed them. Cut-off read from the data, not from the text of the source: active = GI50 up to about 1.1 µM and inactive = higher.
Bench note: report the call from yes (1) for active, no (0) for inactive

Would you please look over these solved cases?
compound	category
C/C(CC(=O)CCC(=O)Nc1cccc(C(F)(F)F)c1)=N\NC(=O)NN	no (0)
CN(N=O)c1nc2c(C(N)=O)ncn2s1	no (0)
O=C1NC(N2CCOCC2)=N/C1=C\c1ccc(Cl)cc1	no (0)
CC(C)(C)C(=O)N1C(C(=O)O)Cc2ccccc2[C@@H]1Cc1ccccc1 (stereo partly specified)	no (0)
CN(C)CCc1c2c(nc3ccccc13)C(=O)c1cccnc1C2=O	yes (1)

Now turn to the next compound.
Could you check what this test reported for O=C1CCCCC1C1(O)C(=O)Nc2cc(F)ccc21 (stereo unspecified) ?
no (0)

---

- System: NCI-H23
- measurement.notes: NCI tumour cell line growth inhibition, 48 h
The source made the active and inactive calls. Cut-off read from the data, not from the text of the source: active = GI50 up to about 1.1 µM and inactive = higher.
Bench note: report the call from active, inactive

Could you check what this test reported for `Cc1cc(NS(=O)(=O)c2ccc(Nc3c4ccccc4nc4c(C(=O)NCCN(C)C)ccc(Cl)c34)cc2)no1` ?
inactive

---

Examples of molecules with documented GI50 follow.
- Tested on: KM-20L2
- measurement.notes: NCI tumour cell line growth inhibition, 48 h
Activity calls are given as the source filed them. No stated cut-off is given here; in the data, active = GI50 up to about 1.1 µM and inactive = higher.

Some solved cases for reference:
molecule	GI50
COc1cc(NS(C)(=O)=O)ccc1NCc1c2ccccc2nc2ccccc12	50.8 µM (inactive)
COc1ccc2c(c1)c[n+](C)c1c3cc(OC)c(OC)cc3ccc21	4.84 µM (inactive)
NC(=S)N/N=C1/C(=O)N(c2ccccc2)C(=O)C1C(=O)Nc1ccccc1 (stereo unspecified)	> 100 µM (inactive)
COc1cc(C=O)c(-c2cc(OC)c(OC)cc2C=O)cc1OC	> 100 µM (inactive)
CCc1ccccc1-n1c2nc(=O)n(C)c(=O)c-2nc2ccccc21	4.08 µM (inactive)

What GI50 value was documented for this molecule, `CN(C)NC(=S)NC12CC3CC(CC(C3)C1)C2` ?
> 100 µM (inactive)
